Reported EC50 (read off the curve) values follow for various binders
Target: T1, biotinylated hBLyS-ECD (human, UniProt Q9Y275 134-285, biotinylated with Biotin-X-X-NHS (molar ratio 7:1), sites not stated)
T1 construct: The hBLyS-ECD of Embodiment 1 after biotinylation (Embodiment 2); also called biotinylated immunogen; BLyS protein; not shown: His tag of the pCPC vector
T1 sequence (Q9Y275 134-285): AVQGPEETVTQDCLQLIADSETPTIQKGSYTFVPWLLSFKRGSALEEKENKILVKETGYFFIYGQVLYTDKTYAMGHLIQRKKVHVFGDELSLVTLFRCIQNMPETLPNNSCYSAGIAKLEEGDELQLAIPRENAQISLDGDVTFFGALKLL
Assay: ELISA: biotinylated hBLyS-ECD captured on streptavidin, antibody titrated, HRP secondary antibody
readout type: EC50 (read off the curve)

1) c97A3C2H4 (antibody, human IgG1, V domains shown, also called BLyS chimeric antibody) VH: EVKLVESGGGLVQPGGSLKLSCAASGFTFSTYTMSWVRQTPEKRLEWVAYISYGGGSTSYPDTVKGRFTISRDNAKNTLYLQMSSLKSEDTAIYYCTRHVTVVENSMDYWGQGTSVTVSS VL: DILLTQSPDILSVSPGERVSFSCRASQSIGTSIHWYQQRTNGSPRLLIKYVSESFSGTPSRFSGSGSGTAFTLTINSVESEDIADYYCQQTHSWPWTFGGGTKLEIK    ~0.05 nM
2) c8E7D9C7F5 (antibody, human IgG1, V domains shown, also called BLyS chimeric antibody) VH: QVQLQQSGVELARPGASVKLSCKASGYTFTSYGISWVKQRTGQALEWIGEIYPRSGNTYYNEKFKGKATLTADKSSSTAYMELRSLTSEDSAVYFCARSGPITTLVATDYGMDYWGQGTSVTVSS VL: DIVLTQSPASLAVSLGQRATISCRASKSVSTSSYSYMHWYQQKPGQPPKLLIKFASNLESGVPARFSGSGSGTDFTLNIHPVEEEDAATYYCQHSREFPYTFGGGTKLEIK    ~0.1 nM
3) c111D10D6G3 (antibody, human IgG1, V domains shown, also called BLyS chimeric antibody) VH: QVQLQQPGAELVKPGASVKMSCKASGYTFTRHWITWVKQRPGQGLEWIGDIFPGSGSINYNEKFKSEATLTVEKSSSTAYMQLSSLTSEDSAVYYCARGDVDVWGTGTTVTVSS VL: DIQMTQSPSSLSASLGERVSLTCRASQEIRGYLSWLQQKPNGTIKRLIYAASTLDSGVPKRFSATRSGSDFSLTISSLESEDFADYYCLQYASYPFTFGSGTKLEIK    ~0.07 nM
4) c93C6F10D3 (antibody, human IgG1, V domains shown, also called BLyS chimeric antibody) VH: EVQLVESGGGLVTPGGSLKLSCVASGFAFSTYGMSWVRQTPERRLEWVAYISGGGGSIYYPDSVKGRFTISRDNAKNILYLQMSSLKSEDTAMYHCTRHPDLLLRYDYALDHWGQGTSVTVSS VL: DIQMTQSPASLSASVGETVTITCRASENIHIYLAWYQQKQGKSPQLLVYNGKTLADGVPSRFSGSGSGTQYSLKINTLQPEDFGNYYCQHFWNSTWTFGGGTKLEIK    ~0.07 nM
5) c67A2E1D10 (antibody, human IgG1, V domains shown, also called BLyS chimeric antibody) VH: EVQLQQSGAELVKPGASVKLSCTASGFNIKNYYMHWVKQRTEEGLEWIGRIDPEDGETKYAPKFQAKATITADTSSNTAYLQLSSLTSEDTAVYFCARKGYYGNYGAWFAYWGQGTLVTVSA VL: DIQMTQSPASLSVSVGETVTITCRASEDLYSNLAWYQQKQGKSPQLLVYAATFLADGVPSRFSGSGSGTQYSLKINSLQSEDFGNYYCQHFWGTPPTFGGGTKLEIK    ~0.1 nM
